Please find below IC50 data on Epidermal growth factor receptor (Homo sapiens, UniProt P00533) compiled from the literature.
Write down the numeric answer in nM and omit the unit.

Field: example entries. Status: answers known.
INSERT INTO results (compound, assay_target, unit_spec, numeric_result) VALUES
  ('NC(=O)c1c(-c2ccc(Oc3ccccc3)cc2)nc2n1NCCC2C1CN(C(=O)/C=C/C(F)(F)F)C1 (configuration not stated)', 'Epidermal growth factor receptor (Homo sapiens, UniProt P00533)', 'nM', 3240),
  ('CN(C)CCNC(=O)c1ccc2c(c1)/C=C/c1n[nH]c3cnc(cc13)-c1cnn(C)c1COCCO2', 'Epidermal growth factor receptor (Homo sapiens, UniProt P00533)', 'nM', 73.7),
  ('C=C(C)Cn1c(O)c(CN(C)C)sc1=NN=c1scc(O)n1C', 'Epidermal growth factor receptor (Homo sapiens, UniProt P00533)', 'nM', 2000),
  ('Nc1ncnc2c1c(-c1cccc(O)c1)cn2C1CCN(CCO)CC1', 'Epidermal growth factor receptor (Homo sapiens, UniProt P00533)', 'nM', 360),
  ('COc1cc2ncnc(Nc3ccc(C(=O)/C=C/c4ccc(Cl)cc4)cc3)c2cc1OC', 'Epidermal growth factor receptor (Homo sapiens, UniProt P00533)', 'nM', 2580);

IC50 for OC(COc1ncnc2ccccc12)CN1CCN(c2ccccc2)CC1 (configuration not stated) is 400

----------
Please find below pIC50 data on Epidermal growth factor receptor (Homo sapiens, UniProt P00533) compiled from the literature.
API: returns pIC50 as number; meaning -log10 of concentration in mol/L.

Field: example entries. Status: answers known.
INSERT INTO measurements (molecule, measured_metric, numeric_result) VALUES
  ('CN(CCN(CCN1CCOCC1)CCN(C)/N=N/c1ccc2ncnc(Nc3cccc(Br)c3)c2c1)/N=N/c1ccc2ncnc(Nc3cccc(Br)c3)c2c1', 'pIC50', 6.92),
  ('CN1CCC(NC(=O)c2ccc3c(c2)/C=C/c2n[nH]c4cnc(cc24)-c2cnn(C)c2OCCCO3)CC1', 'pIC50', 8.51),
  ('OC(COc1ncnc2ccccc12)CN1CCOCC1 (configuration not stated)', 'pIC50', 6.32);

pIC50 for `C=C(C)CN1C(=O)C(=C)SC1=NN=c1scc(O)n1C` is 6.00

pIC50 for `CNC(=O)c1ccc2c(c1)/C=C/c1n[nH]c3cnc(cc13)-c1cnn(C)c1OCCCO2` is 7.62

----------
Please find below pIC50 data on Epidermal growth factor receptor (Homo sapiens) compiled from the literature.
pIC50: −log10 of the molar value.
Kind request: treat 7 as inclusive, so pIC50 at 7 or higher is yes (1), anything lower is no (0).

INSERT INTO results (molecule, label) VALUES
  ('C=C(C)Cn1c(O)c(OS(=O)O)sc1=NN=c1scc(O)n1C', 'no (0)'),
  ('C=C(C)Cn1c(O)c(C)sc1=NN=c1scc(O)n1C', 'no (0)'),
  ('CSCC[C@@H](NC(=O)[C@@H](NC(=O)[C@@H](NC(=O)CC(=O)N(O)C/C=C(\C)CC/C=C(\C)CCC=C(C)C)C(C)C)C(C)C)C(=O)O', 'yes (1)'),
  ('CNc1nc(N=NCc2ccc(O)cc2)nc(Nc2ccccc2)n1', 'no (0)');

Task: Form field: pIC50 at least 7? Entry: `CC1=C(CC(=O)O)c2ccc(Br)cc2/C1=C\c1ccoc1`
Output: no (0)

Task: Form field: pIC50 at least 7? Entry: `CN1CC(NC(=O)c2ccc3c(c2)OCCCOc2c(cnn2C)-c2cc4c(n[nH]c4cn2)/C=C/3)C1`
Output: yes (1)

Task: Form field: pIC50 at least 7? Entry: `COCCNCCN1CCC(n2cc(-c3cccc(OC)c3)c3c(N)ncnc32)CC1`
Output: no (0)

Task: Form field: pIC50 at least 7? Entry: OC(COc1ncnc2ccccc12)CN1CCCCC1 (stereo not given)
Output: no (0)

Task: Form field: pIC50 at least 7? Entry: CN1CCN(CC(O)COc2ncnc3ccccc23)CC1 (stereo not given)
Output: no (0)

Task: Form field: pIC50 at least 7? Entry: `COc1cc2c(cc1Nc1ncc(Br)c(Nc3ccc4nccnc4c3P(C)(C)=O)n1)-c1cnn(C)c1CCN2C1CC1`
Output: yes (1)

Task: Form field: pIC50 at least 7? Entry: `C=CC(=O)Nc1cc(Nc2nc(-c3cnn(C)c3)c3cc[nH]c3n2)c(OC)cc1OCCN(C)C`
Output: no (0)

Task: Form field: pIC50 at least 7? Entry: Cc1cn(CC(O)COc2ncnc3ccccc23)cn1 (stereo not given)
Output: no (0)

Task: Form field: pIC50 at least 7? Entry: Cc1ccc2c(n1)/C=C/c1n[nH]c3cnc(nc13)-c1cnn(C)c1C(C)OCCO2 (stereo not given)
Output: no (0)
